The origin of these recorded values is paper PMC2671240.

# Tested on: minimal muscular or neurological impairment (gait)
# EXPERIMENTAL DETAILS: TOX, abnormal uncoordinated gait, rat PO
# Format: in vivo
# RUN PARAMETERS: 0.5 h

COMPOUND	TARGET DESC	TOX, number toxic/number tested
C#Cc1ccc2c(c1)C(c1ccccc1Cl)=NCc1nnc(C)n1-2 [compound 4]	minimal muscular or neurological impairment (gait)	0/4
CCOC(=O)c1ncn2c1CN=C(c1ccccc1F)c1cc(I)ccc1-2 [compound 5]	minimal muscular or neurological impairment (gait)	0/6
C#Cc1ccc2c(c1)C(c1ccccn1)=NCc1c(C(=O)OCC)ncn1-2 [compound 2]	minimal muscular or neurological impairment (gait)	0/4
C#Cc1ccc2c(c1)C(c1ccccc1F)=NCc1c(C(=O)OCC)ncn1-2 [compound 3]	minimal muscular or neurological impairment (gait)	0/4

----------
Listing: scMET, number protected/number tested of selected compounds
# System: subcutaneous pentylenetetrazole induced seizures
# EXPERIMENTAL DETAILS: Subcutaneous metrazole seizure
# Format: in vivo, rat
# RUN PARAMETERS: rat PO, 50 mg/kg, 0.5 h

SMILES STRUCTURE	scMET, number protected/number tested
C#Cc1ccc2c(c1)C(c1ccccc1F)=NCc1c(C(=O)OCC)ncn1-2	3/4
C#Cc1ccc2c(c1)C(c1ccccc1Cl)=NCc1nnc(C)n1-2	4/4
CCOC(=O)c1ncn2c1CN=C(c1ccccc1F)c1cc(I)ccc1-2	2/6
C#Cc1ccc2c(c1)C(c1ccccn1)=NCc1c(C(=O)OCC)ncn1-2	4/4
